Biological target: mUSP18 (Mus musculus)
Construct: (46-368); His-tag (N); made in house
Sequence (Q9WTV6 46-368): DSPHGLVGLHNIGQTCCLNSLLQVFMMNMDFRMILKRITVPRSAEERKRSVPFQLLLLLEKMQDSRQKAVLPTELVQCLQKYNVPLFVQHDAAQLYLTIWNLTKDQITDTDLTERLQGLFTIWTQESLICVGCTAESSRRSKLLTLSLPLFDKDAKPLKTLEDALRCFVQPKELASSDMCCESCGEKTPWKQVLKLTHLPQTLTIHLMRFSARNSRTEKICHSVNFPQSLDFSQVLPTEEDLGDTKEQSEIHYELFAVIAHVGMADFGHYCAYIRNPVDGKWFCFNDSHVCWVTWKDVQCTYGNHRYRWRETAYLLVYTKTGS
Test: High-throughput screening, ISG15ct-RhoMP, single dose 1.25 µM
Assay type: biochemical, murine
Conditions: mUSP18 %inhibition; carboxylic acid (CA) building block alone; read-out: %inh CA only
ENDPOINT: inhibition at 1.25 µM (%)

The following compounds have reported results that may help.
COMPOUND	TARGET	inhibition at 1.25 µM (%)
CN(C(=O)c1cccs1)c1ccccc1C(=O)O	mUSP18 (Mus musculus)	16.4
O=C(O)C1CCN(Cc2ccc(Cl)s2)CC1	mUSP18 (Mus musculus)	13
Cc1onc(C(=O)O)c1CN1CCN(C)CC1	mUSP18 (Mus musculus)	-6.3

(I) CC1CC1C(=O)N1CCCCC1C(=O)O (stereo not drawn)
(II) O=C(O)c1occc1COc1ccccc1
(III) O=C(O)c1cccc(S(=O)(=O)N2CCOCC2)c1
Ask: Which order do these items take when sorted by rising inhibition at 1.25 µM? List them. # output: labels, in the requested order
Result: III, I, II
